# System: CLK2;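 further: KINOMEscan kinase panel screen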
# conditions: concentration: 1 μM, replicates: in singlicate; n = 1
test_readout: %Inh (%)

OCCCNc1nccc(-c2c(-c3cccc(C(F)(F)F)c3)nn3cc(C(F)(F)F)ccc23)n1 [GW630813] ... 0
COc1cc2ncn(-c3cc(OCCCc4ccccc4)c(C(N)=O)s3)c2cc1OC [GSK205189] ... 0
Nc1n[nH]c2nnc(-c3ccccc3)c(-c3ccccc3)c12 [GW554060] ... 65
COc1ccc(CNC(=O)NC2CCN(c3ccnc(Nc4ccc(F)cc4)n3)C2)cc1 (centres unmarked) [GSK1379706] ... 0
Cc1nc(N(C)[C@H]2CN(C(=O)CC#N)CC[C@H]2C)c2cc[nH]c2n1 ... 15
